Value source: patent US20220119513A1

- EXPERIMENTAL_TARGET: T1, TGFβ3 (R&D Systems) (Homo sapiens (Human), UniProt P10600 301-412, Active TGFβ3 is a disulfide-linked homodimer of this chain; one copy is given.)
- T1 construct: also called TGFB3
- T1 sequence: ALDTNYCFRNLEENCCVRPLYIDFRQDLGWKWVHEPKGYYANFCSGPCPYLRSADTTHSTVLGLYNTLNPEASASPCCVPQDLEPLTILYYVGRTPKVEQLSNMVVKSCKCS
- ASSAY: SPR full titration
PROPERTY_NAME: pKd
Would you please state pKd, meaning minus log10 of the concentration in mol/L, as a bare number?

# BINDER, PROPERTY_NAME, NUMERIC_VALUE
rows = [
    ("affinity matured HcLb 270 (antibody, V domains shown, full IgG; also called canHcLb/55SW/100DY/57SV/30IM + canHcLb/237ND/242TS) VH: EVQLVQSGAEVKKPGASVKVSCKTSGYTFMTYWMNWVRQAPGAGLDWMGQIFPAWGMTNYNEMFEGRVTLTADTSTSTAYMELSSLRAGDIAVYYCARGYGNYALDAMDYWGQGTLVTVSS VL: DIVMTQTPPSLSVSPRETASISCRASESVDSYGNSFMHWYLQKPGQSPQLLIYLASNLESGVSDRFSGSGSGTDFTLRISRVEANDTGVYYCQQNDEDPLSFGQGTK", "pKd", 8.92),
    ("affinity matured HcLb 266 (antibody, V domains shown, full IgG; also called canHcLb/55SW/100DY/30IM/31TK/28TI/57SM + canHcLb/237ND/242TS) VH: EVQLVQSGAEVKKPGASVKVSCKTSGYIFMKYWMNWVRQAPGAGLDWMGQIFPAWGMTNYNEMFEGRVTLTADTSTSTAYMELSSLRAGDIAVYYCARGYGNYALDAMDYWGQGTLVTVSS VL: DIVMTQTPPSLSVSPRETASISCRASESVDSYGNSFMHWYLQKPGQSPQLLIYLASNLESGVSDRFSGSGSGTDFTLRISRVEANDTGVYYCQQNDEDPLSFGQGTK", "pKd", 9.34),
]

# lookup: pKd of affinity matured HcLb 262 (antibody, V domains shown, full IgG; constant regions not restated) VH: EVQLVQSGAEVKKPGASVKVSCKTSGYTFIKYWMNWVRQAPGAGLDWMGQIFPAWGSTNYNEMFEGRVTLTADTSTSTAYMELSSLRAGDIAVYYCARGYGNYALDAMDYWGQGTLVTVSS VL: DIVMTQTPPSLSVSPRETASISCRASESVDSYGNSFMHWYLQKPGQSPQLLIYLASNLESGVSDRFSGSGSGTDFTLRISRVEANDTGVYYCQQNNEDPLTFGQ
9.07
